Assay: Metabolic stability in pooled human liver microsomes assessed as half-life at 10 uM measured upto 4 hrs in presence of NADPH by UPLC-MS/MS analysis
Format: ADME, Microsome
Readout: t1/2

(Q) Reported t1/2, compound O=C1CCC(N2Cc3cc(Nc4noc5ccccc45)ccc3C2=O)C(=O)N1 (stereo unspecified) : ____
(A) > 10 h

(Q) Reported t1/2, compound O=C1CCC(N2Cc3cc(NC(=O)c4ccc(F)cc4)ccc3C2=O)C(=O)N1 (stereo unspecified) : ____
(A) > 10 h

(Q) Reported t1/2, compound O=C1CCC(N2Cc3cc(NC(=O)c4cccc(F)c4)ccc3C2=O)C(=O)N1 (stereo unspecified) : ____
(A) > 10 h

(Q) Reported t1/2, compound COc1cccc(C(=O)Nc2ccc3c(c2)CN(C2CCC(=O)NC2=O)C3=O)c1 (stereo unspecified) : ____
(A) > 10 h

(Q) Reported t1/2, compound Cc1ccc(C(=O)Nc2ccc3c(c2)CN(C2CCC(=O)NC2=O)C3=O)cc1 (stereo unspecified) : ____
(A) 7.2 h

(Q) Reported t1/2, compound Cc1cccc(C(=O)Nc2ccc3c(c2)CN(C2CCC(=O)NC2=O)C3=O)c1 (stereo unspecified) : ____
(A) 6.8 h
